Source listed as patent US8455510B2.

experiment-description: in vivo
Assay type: in vivo
run-conditions: nude, mouse, in vivo, CCI-779 (prototype) concentration, Blood Plasma
observable: concentration at 0.5 h (ng/mL)
Your answer is read as ng/mL, so omit the unit and give the number.

Give the measured concentration at 0.5 h of CO[C@H]1C[C@@H]2CC[C@@H](C)[C@@](O)(O2)C(=O)C(=O)N2CCCC[C@H]2C(=O)O[C@H]([C@H](C)C[C@@H]2CC[C@@H](OC(=O)C(C)(CO)CO)[C@H](OC)C2)CC(=O)[C@H](C)/C=C(\C)[C@@H](O)[C@@H](OC)C(=O)[C@H](C)C[C@H](C)/C=C/C=C/C=C/1C . 20.5
